Values were extracted from patent US10501460B2.

Kindly state IC50 for each of the entries shown.
# Test system: MV-4-11
# assay.summary: Oncology cell growth assay MV-4-11 (CellTiter Glo, 72 hours)
# Format: cell-based
# applied.conditions: Homo sapiens, MV4-11, 72 h; MV-4-11 cell growth inhibitory activity, 3d

- compound: "Cc1noc(C)c1-c1cnc2[nH]cc(Cc3ccccc3OC(F)F)c2c1"
  IC50: "1 to 10 µM"

Below are some compounds; for each one, tell me its IC50.
1. COc1ncc(F)cc1C(OC)c1c[nH]c2ncc(-c3c(C)noc3C)cc12 (stereo not drawn)
2. Cc1noc(C)c1-c1cnc2ccn(S(=O)(=O)c3cccc(F)c3)c2c1

≤ 1 µM
1 to 10 µM

Below are some compounds; for each one, tell me its IC50.
1. CCCCS(=O)(=O)n1ccc2ncc(-c3c(C)noc3C)cc21
2. CCn1cc(-c2cn(C(C)c3ccccc3)c3cc(-c4c(C)noc4C)cnc23)cn1 (stereo not drawn)
3. [2H]C([2H])(C1CCC(F)(F)CC1)n1cc(-c2cnn(C(F)F)c2)c2ncc(-c3c(C)noc3C)cc21

1. 1 to 10 µM
2. ≤ 1 µM
3. ≤ 1 µM

Below are some compounds; for each one, tell me its IC50.
1. Cc1noc(C)c1-c1cnc2c(-c3cnn(C(F)F)c3)cn(Cc3ccccc3F)c2c1
2. Cc1noc(C)c1-c1cnc2ccn(S(=O)(=O)c3cccc(OC(F)F)c3)c2c1
3. Cc1noc(C)c1-c1cnc2c(-c3cnn(C)c3)cn(C(C(=O)NC3CC3)c3ccccc3)c2c1 (stereo not drawn)

1: ≤ 1 µM; 2: 1 to 10 µM; 3: ≤ 1 µM
